# maps each entry to its pIC50
Molecular target: human PLK4 (Homo sapiens)
Construct: amino terminal GST fusion of residues 1-391 of human PLK4; made in house; host or cells: E. coli
Experiment: PLK4 Inhibition Assay (indirect ELISA)
Assay type: biochemical
pIC50: −log10 of the molar value.
parameter-measured: pIC50

# molecule, parameter-measured, value-measured
data = [
    ("O=C1Nc2ccccc2[C@]12C[C@H]2c1ccc2c(I)n[nH]c2c1 (relative stereo)", "pIC50", "6.00 to 7.00"),
    ("COc1ccc2c(c1)[C@]1(C[C@H]1c1ccc3c(-c4ccc(N5CCNCC5)cc4)n[nH]c3c1)C(=O)N2 [Example A49, 2,2,2-trifluoroacetate]", "pIC50", "> 7.00"),
    ("COc1ccc2c(c1)[C@@]1(C[C@@H]1c1ccc3c(-c4ccc(N5CCNCC5)cc4)n[nH]c3c1)C(=O)N2 (racemic) [Example A48, 2,2,2-trifluoroacetate]", "pIC50", "> 7.00"),
]

###

Recorded GI50 for the following molecules
System: A549 lung cancer cell line
Assay: Cell growth inhibition, Sulforhodamine B assay (SRB)
Type: cell-based
Settings: Homo sapiens, 120 h; A549 lung cancer cell line; 5 days culture; SRB; read-out: Cell Line GI50 Range A-549
parameter-measured: GI50

# molecule, parameter-measured, value-measured
data = [
    ("COc1ccc2c(c1)[C@@]1(C[C@@H]1c1ccc3c(-c4ccc(N5CCN(C(C)C)CC5)cc4)n[nH]c3c1)C(=O)N2 (racemic) [Example A96]", "GI50", "< 100 nM"),
    ("COc1ccc2c(c1)[C@@]1(C[C@@H]1c1ccc3c(-c4ccc(N5CCNCC5)nc4)n[nH]c3c1)C(=O)N2 (racemic) [Example A21]", "GI50", "1000 to 10000 nM"),
    ("COc1ccc2c(c1)[C@@]1(C[C@@H]1c1ccc3c(/C=C/c4csc(CN5CCOCC5)c4)n[nH]c3c1)C(=O)N2 (racemic) [Example A184, 2,2,2-trifluoroacetate]", "GI50", "< 100 nM"),
    ("O=C1Nc2ncc(Br)cc2[C@@]12C[C@@H]2c1ccc2c(/C=C/c3cccnc3)n[nH]c2c1 (racemic) [Example A27]", "GI50", "1000 to 10000 nM"),
    ("COc1ccc2c(c1)[C@@]1(C[C@@H]1c1ccc3c(/C=C/c4csc(CN(C)C)c4)n[nH]c3c1)C(=O)N2 (racemic) [Example A181]", "GI50", "< 100 nM"),
    ("COc1ccc2c(c1)[C@@]1(C[C@@H]1c1ccc3c(-c4ccc(CO)cc4)n[nH]c3c1)C(=O)N2 (racemic) [Example A45, 2,2,2-trifluoroacetate]", "GI50", "100 to 1000 nM"),
]

###

Entries and their measured inhibition at 1 µM follow.
Molecular target: Aurora A (Homo sapiens)
Construct: purchased Invitrogen PV3612
Sequence (O14965 whole entry): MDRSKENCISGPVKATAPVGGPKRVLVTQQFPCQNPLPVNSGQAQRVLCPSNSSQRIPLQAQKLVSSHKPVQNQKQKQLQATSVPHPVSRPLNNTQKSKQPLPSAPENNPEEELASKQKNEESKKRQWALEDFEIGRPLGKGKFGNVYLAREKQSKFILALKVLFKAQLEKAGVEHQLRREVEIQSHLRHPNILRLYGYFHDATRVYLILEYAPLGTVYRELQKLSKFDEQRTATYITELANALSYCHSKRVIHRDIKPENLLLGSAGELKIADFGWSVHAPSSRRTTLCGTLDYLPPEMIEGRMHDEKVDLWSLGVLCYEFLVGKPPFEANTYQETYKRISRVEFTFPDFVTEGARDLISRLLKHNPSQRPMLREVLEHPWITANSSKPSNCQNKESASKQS
Experiment: Aurora A Inhibition Assay (Z-Lyte)
Assay type: biochemical
Details: 1 μM compound; 20 μM ATP; read-out: Aurora A relative inhibition percentage at a dose of 1 μM
parameter-measured: inhibition at 1 µM

# compound, parameter-measured, value-measured
rows = [
    ("O=C1Nc2ccccc2[C@@]12C[C@@H]2c1ccc2c(/C=C/c3ccc(CN4CCCC4)cc3)n[nH]c2c1 (racemic)", "inhibition at 1 µM", "> 50%"),
    ("COc1ccc2c(c1)[C@]1(C[C@@H]1c1ccc3c(-c4ccc(N5CCN(C)CC5)nc4)n[nH]c3c1)C(=O)N2 (relative stereo)", "inhibition at 1 µM", "< 50%"),
    ("COc1ccc2c(c1)[C@@]1(C[C@@H]1c1ccc3c(-c4ccc(N5CCN(C(C)C)CC5)cc4)n[nH]c3c1)C(=O)N2 (racemic)", "inhibition at 1 µM", "< 50%"),
    ("CCN1CCN(c2ccc(/C=C/c3n[nH]c4cc([C@@H]5C[C@@]56C(=O)Nc5ccc(OC)cc56)ccc34)cc2)CC1 (racemic) [Example A188, 2,2,2-trifluoroacetate]", "inhibition at 1 µM", "> 50%"),
    ("COc1ccc2c(c1)[C@@]1(C[C@@H]1c1ccc3c(/C=C/c4ccc(CN5CCOCC5)cc4)n[nH]c3c1)C(=O)N2 (racemic) [Example A41, 2,2,2-trifluoroacetate]", "inhibition at 1 µM", "> 50%"),
    ("O=C1Nc2ccccc2[C@@]12C[C@@H]2c1ccc2c(/C=C/c3ccc(CN4CCCCC4)cc3)n[nH]c2c1 (racemic) [Example A57, 2,2,2-trifluoroacetate]", "inhibition at 1 µM", "> 50%"),
]

###

Target: human PLK4 (Homo sapiens)
Construct: amino terminal GST fusion of residues 1-391 of human PLK4; made in house; host or cells: E. coli
Sequence (O00444 1-391): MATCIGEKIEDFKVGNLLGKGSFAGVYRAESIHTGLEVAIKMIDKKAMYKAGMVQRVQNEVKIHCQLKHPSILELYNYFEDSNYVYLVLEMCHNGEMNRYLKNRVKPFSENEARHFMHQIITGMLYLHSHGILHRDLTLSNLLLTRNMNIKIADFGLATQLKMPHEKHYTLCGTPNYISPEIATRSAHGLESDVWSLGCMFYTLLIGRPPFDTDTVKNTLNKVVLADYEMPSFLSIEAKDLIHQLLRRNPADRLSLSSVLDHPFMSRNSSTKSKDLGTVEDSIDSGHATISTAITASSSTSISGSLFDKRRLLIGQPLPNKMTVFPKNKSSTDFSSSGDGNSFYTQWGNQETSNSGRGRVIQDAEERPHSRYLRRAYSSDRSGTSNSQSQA
Test: PLK4 Inhibition Assay (indirect ELISA)
Type: biochemical
Settings: 15 μM ATP; read-out: PLK4 IC50 Ranges
pIC50: −log10 of the molar value.
pIC50 by entry:

# compound, pIC50
rows = [
    ("CN1CCN(c2ccc(-c3n[nH]c4cc([C@@H]5C[C@@]56C(=O)Nc5ccc(C(F)(F)F)cc56)ccc34)cc2)CC1 (racemic) [Example A170, 2,2,2-trifluoroacetate]", "6.00 to 7.00"),
    ("COc1ccc2c(c1)[C@]1(C[C@H]1c1ccc3c(/C=C/c4cc(F)c(CN(C)C)c(F)c4)n[nH]c3c1)C(=O)N2 (relative stereo)", "> 7.00"),
    ("COc1ccc2c(c1)[C@@]1(C[C@@H]1c1ccc3c(-c4ccc(N5CCNCC5)nc4)n[nH]c3c1)C(=O)N2 (racemic)", "> 7.00"),
    ("COc1ccc2c(c1)[C@@]1(C[C@@H]1c1ccc3c(/C=C/c4csc(CN(C)C)c4)n[nH]c3c1)C(=O)N2 (racemic)", "> 7.00"),
    ("COc1ccc2c(c1)[C@@]1(C[C@@H]1c1ccc3c(-c4cccc(CCO)c4)n[nH]c3c1)C(=O)N2 (racemic)", "> 7.00"),
    ("COc1ccc2c(c1)[C@@]1(C[C@@H]1c1ccc3c(-c4ccc(N5CCC(N(C)C)CC5)cc4)n[nH]c3c1)C(=O)N2 (racemic)", "> 7.00"),
]

###

Tested on: MCF-7 luminal breast cancer cell line
Assay: Cell growth inhibition, Sulforhodamine B assay (SRB)
Assay type: cell-based
Conditions: Homo sapiens, MCF7, 120 h; MCF-7 luminal breast cancer cell line; 5 days culture; SRB; read-out: Cell Line GI50 Range MCF-7

# molecule, GI50
records = [
    ("COc1ccc2c(c1)[C@@]1(C[C@@H]1c1ccc3c(/C=C/c4ccc(CCN5CCOCC5)cc4)n[nH]c3c1)C(=O)N2 (racemic) [Example A178, 2,2,2-trifluoroacetate]", "< 100 nM"),
    ("COc1ccc2c(c1)[C@@]1(C[C@@H]1c1ccc3c(/C=C/c4csc(CN5CCOCC5)c4)n[nH]c3c1)C(=O)N2 (racemic) [Example A184, 2,2,2-trifluoroacetate]", "100 to 1000 nM"),
    ("COc1ccc2c(c1)[C@@]1(C[C@@H]1c1ccc3c(/C=C/c4ccc(N5CCN(C)CC5)cc4)n[nH]c3c1)C(=O)N2 (racemic) [Example A174, 2,2,2-trifluoroacetate]", "< 100 nM"),
]

###

System: MCF-7 luminal breast cancer cell line
Assay: Cell growth inhibition, Sulforhodamine B assay (SRB)
Assay type: cell-based
Conditions: Homo sapiens, MCF7, 120 h; MCF-7 luminal breast cancer cell line; 5 days culture; SRB; read-out: Cell Line GI50 Range MCF-7

# compound, GI50
rows = [
    ("COc1ccc2c(c1)[C@@]1(C[C@@H]1c1ccc3c(-c4ccc(N5CCC(N(C)C)CC5)cc4)n[nH]c3c1)C(=O)N2 (racemic)", "< 100 nM"),
    ("NS(=O)(=O)c1cccc(-c2n[nH]c3cc([C@@H]4C[C@@]45C(=O)Nc4ccccc45)ccc23)c1 (racemic)", "1000 to 10000 nM"),
    ("COc1ccc2c(c1)[C@@]1(C[C@@H]1c1ccc3c(/C=C/c4csc(CN(C)C)c4)n[nH]c3c1)C(=O)N2 (racemic)", "< 100 nM"),
    ("COc1ccc2c(c1)[C@@]1(C[C@@H]1c1ccc3c(-c4cccc(CCO)c4)n[nH]c3c1)C(=O)N2 (racemic)", "1000 to 10000 nM"),
    ("COc1ccc2c(c1)[C@@]1(C[C@@H]1c1ccc3c(-c4cccc(N5CCNCC5)c4)n[nH]c3c1)C(=O)N2 (racemic) [Example A47, 2,2,2-trifluoroacetate]", "1000 to 10000 nM"),
    ("Cc1ccc2c(c1)[C@@]1(C[C@@H]1c1ccc3c(-c4ccc(N5CCN(C)CC5)cc4)n[nH]c3c1)C(=O)N2 (racemic) [Example A173, 2,2,2-trifluoroacetate]", "100 to 1000 nM"),
]
